# assayedTarget: human calcium receptor (Homo sapiens, UniProt P41180, R990G)
# Construct: expressed in transfected cells; host or cells: HEK 293
# Sequence (P41180 20-1078 R990G): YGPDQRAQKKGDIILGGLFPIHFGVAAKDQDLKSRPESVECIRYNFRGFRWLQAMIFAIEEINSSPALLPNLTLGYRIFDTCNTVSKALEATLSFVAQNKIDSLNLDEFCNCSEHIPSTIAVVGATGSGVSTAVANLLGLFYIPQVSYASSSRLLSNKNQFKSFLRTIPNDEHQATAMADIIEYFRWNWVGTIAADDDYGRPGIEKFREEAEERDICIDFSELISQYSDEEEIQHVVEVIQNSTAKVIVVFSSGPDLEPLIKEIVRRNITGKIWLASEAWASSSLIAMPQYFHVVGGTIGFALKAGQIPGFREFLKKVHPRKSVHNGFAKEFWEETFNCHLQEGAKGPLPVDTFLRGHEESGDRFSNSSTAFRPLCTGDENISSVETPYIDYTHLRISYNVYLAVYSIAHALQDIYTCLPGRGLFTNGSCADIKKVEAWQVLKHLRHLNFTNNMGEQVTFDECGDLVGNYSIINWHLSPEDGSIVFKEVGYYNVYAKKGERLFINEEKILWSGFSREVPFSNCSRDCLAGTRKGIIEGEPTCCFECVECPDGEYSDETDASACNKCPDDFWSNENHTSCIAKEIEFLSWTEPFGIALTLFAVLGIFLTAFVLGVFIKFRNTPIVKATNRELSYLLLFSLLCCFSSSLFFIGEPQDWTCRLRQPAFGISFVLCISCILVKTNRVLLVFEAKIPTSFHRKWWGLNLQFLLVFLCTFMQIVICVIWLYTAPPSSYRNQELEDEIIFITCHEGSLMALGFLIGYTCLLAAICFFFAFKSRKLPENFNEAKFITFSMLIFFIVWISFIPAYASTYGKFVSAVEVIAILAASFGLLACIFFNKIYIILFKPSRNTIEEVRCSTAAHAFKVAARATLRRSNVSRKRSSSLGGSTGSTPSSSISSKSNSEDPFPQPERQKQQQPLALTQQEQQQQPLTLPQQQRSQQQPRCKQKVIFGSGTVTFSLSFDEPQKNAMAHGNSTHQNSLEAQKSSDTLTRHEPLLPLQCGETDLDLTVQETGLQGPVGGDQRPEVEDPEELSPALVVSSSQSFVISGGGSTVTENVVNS
# assayName: increases in [Ca^2+ ]i in HEK-293 cells expressing the human calcium receptor (fura-2 loaded HEK 293/pHuPCaR4.0 cells), % activity
# Type: cell-based
# experimentalSetup: 330 ng/mL
quantityKind: % activity (%)
Just the number in %, nothing appended.

Some solved cases for reference:
compound: COc1cccc([C@@H](C)NCCCc2ccc(OC)c(OC)c2)c1 [Compound 20J]
% activity (%): 80
//
compound: COc1ccc(CNC(C)c2ccc(Cl)cc2)cc1C (stereo not drawn) [Compound 23O]
% activity (%): 79
//
compound: COc1ccc(CNC(C)c2ccccc2Cl)cc1C (stereo not drawn) [Compound 23M]
% activity (%): 97
//
compound: CC(NC1CCc2ccccc21)c1cccc2ccccc12 (mixture of isomers)
% activity (%): 82
//
compound: COc1ccc(CNC(C)c2c(OC)ccc3ccccc23)cc1C (stereo not drawn) [Compound 18B]
% activity (%): 96
//
compound: COc1cccc([C@@H](C)NCc2ccc3c(c2)OCO3)c1 [Compound 25J]
% activity (%): 123

For this compound ( CC(N[C@H](C)c1ccc2ccccc2c1)c1ccc(C(C)(C)C)cc1 (stereo partly drawn) [Compound 13F] ), measured % activity is 122

For this compound ( COc1cccc([C@@H](C)NCc2ccc(OC)c(OC)c2)c1 [Compound 25K] ), measured % activity is 107

For this compound ( Cc1ccc([C@@H](C)N[C@H](C)c2cccc3ccccc23)cc1C [Compound 17N] ), measured % activity is 108
